Tested on: Candida tropicalis
PROTOCOL DESCRIPTION: Broth microdilution of invasive fungal isolates (CLSI M27-A3/M38-A2)
Assay type: cell-based
EXPERIMENTAL CONDITIONS: 51 isolates
Starred links: 1 amine or outer side, 2 acyl side, 3 side chain; linkers in the order of their positions; H or OH if unused. Positions of bridges follow the written chain, without caps; N, C: chain ends. Non-standard residues stand in square brackets, D forms with d. Residues, ends and D or L forms follow the SMILES beside them. *: point of attachment. Orn(4R-OH,5R-OCH2CH2NMe3+) = C[N+](C)(C)CCO[C@@H](N[*:3])[C@H](O)C[C@H](N[*:1])C(=O)[*:2]; hTyr(3S-OH,4S-OH,3'-OSO3H) = N[C@H](C(=O)O)[C@H](O)[C@@H](O)c1ccc(O)c(OS(=O)(=O)O)c1; pTerphenylCO(4''-OnC5H11) = CCCCCOc1ccc(-c2ccc(-c3ccc(C(=O)*)cc3)cc2)cc1; Orn(4R-OH,5R-OH) = O=C([C@H](C[C@@H](O)[C@@H](O)N[*:3])N[*:1])[*:2]; hTyr(3S-OH,4S-OH) = N[C@H](C(=O)O)[C@H](O)[C@@H](O)c1ccc(O)cc1; Pro(3S-OH,4S-Me) = C[C@H]1CN[C@H](C(=O)O)[C@H]1O; X1 = CCCCCOc1ccc(-c2cc(-c3ccc(C(=O)*)cc3)no2)cc1; Gln(3R-OH) = NC(=O)C[C@@H](O)[C@H](N)C(=O)O; Hyp = O=C(O)[C@@H]1C[C@@H](O)CN1
PROPERTY LABEL: Cumulative % of isolates inhibited at MIC 0.06 μg/mL

>>> measured_result("CCCCCOc1ccc(-c2ccc(-c3ccc(C(=O)N[C@H]4C[C@@H](O)[C@@H](O)NC(=O)[C@@H]5[C@@H](O)[C@@H](C)CN5C(=O)[C@H]([C@@H](C)O)NC(=O)[C@H]([C@H](O)[C@@H](O)c5ccc(O)cc5)NC(=O)[C@@H]5C[C@@H](O)CN5C(=O)[C@H]([C@@H](C)O)NC4=O)cc3)cc2)cc1 [ANID, anidulafungin] ({pTerphenylCO(4''-OnC5H11)}-[Orn(4R-OH,5R-OH)]T[Hyp][hTyr(3S-OH,4S-OH)]T[Pro(3S-OH,4S-Me)]; lactam 1-C)")
"(100.0) %"
>>> measured_result("CCCCCOc1ccc(-c2ccc(-c3ccc(C(=O)N[C@H]4C[C@@H](O)[C@@H](OCC[N+](C)(C)C)NC(=O)[C@@H]5[C@@H](O)[C@@H](C)CN5C(=O)[C@H]([C@@H](C)O)NC(=O)[C@H]([C@H](O)[C@@H](O)c5ccc(O)cc5)NC(=O)[C@@H]5C[C@@H](O)CN5C(=O)[C@H]([C@@H](C)O)NC4=O)cc3)cc2)cc1 [Compound 1] ({pTerphenylCO(4''-OnC5H11)}-[Orn(4R-OH,5R-OCH2CH2NMe3+)]T[Hyp][hTyr(3S-OH,4S-OH)]T[Pro(3S-OH,4S-Me)]; lactam 1-C)")
"(100.0) %"
>>> measured_result("CCCCCOc1ccc(-c2cc(-c3ccc(C(=O)N[C@H]4C[C@@H](O)[C@@H](O)NC(=O)[C@@H]5[C@@H](O)[C@@H](C)CN5C(=O)[C@H]([C@H](O)CC(N)=O)NC(=O)[C@H]([C@H](O)[C@@H](O)c5ccc(O)c(OS(=O)(=O)O)c5)NC(=O)[C@@H]5C[C@@H](O)CN5C(=O)[C@H]([C@@H](C)O)NC4=O)cc3)no2)cc1 [MCF, micafungin] (X1-[Orn(4R-OH,5R-OH)]T[Hyp][hTyr(3S-OH,4S-OH,3'-OSO3H)][Gln(3R-OH)][Pro(3S-OH,4S-Me)]; lactam 1-C)")
"(100.0) %"

====

Tested on: C. albicans vaginal isolates
PROTOCOL DESCRIPTION: Susceptibility testing of VVC clinical isolates at pH 7 and 4 (CLSI M27-A3)
Type: cell-based, Candida albicans
EXPERIMENTAL CONDITIONS: Candida albicans; 60 isolates; pH 4; 24 h; read-out: MIC90
Starred links: 1 amine or outer side, 2 acyl side, 3 side chain; linkers in the order of their positions; H or OH if unused. Positions of bridges follow the written chain, without caps; N, C: chain ends. Non-standard residues stand in square brackets, D forms with d. Residues, ends and D or L forms follow the SMILES beside them. *: point of attachment. Orn(4R-OH,5R-OCH2CH2NMe3+) = C[N+](C)(C)CCO[C@@H](N[*:3])[C@H](O)C[C@H](N[*:1])C(=O)[*:2]; pTerphenylCO(4''-OnC5H11) = CCCCCOc1ccc(-c2ccc(-c3ccc(C(=O)*)cc3)cc2)cc1; hTyr(3S-OH,4S-OH) = N[C@H](C(=O)O)[C@H](O)[C@@H](O)c1ccc(O)cc1; Pro(3S-OH,4S-Me) = C[C@H]1CN[C@H](C(=O)O)[C@H]1O; Hyp = O=C(O)[C@@H]1C[C@@H](O)CN1
PROPERTY LABEL: MIC90 (mg/L)
Write the answer as a number in mg/L, unit excluded.

Given the entry CC[C@H](C)C[C@H](C)CCCCCCCCC(=O)N[C@H]1C[C@@H](O)[C@@H](NCCN)NC(=O)[C@@H]2[C@@H](O)CCN2C(=O)[C@H]([C@H](O)CCN)NC(=O)[C@H]([C@H](O)[C@@H](O)c2ccc(O)cc2)NC(=O)[C@@H]2C[C@@H](O)CN2C(=O)[C@H]([C@@H](C)O)NC1=O , report its measured MIC90.
0.5

Given the entry OC(Cn1cncn1)(Cn1cncn1)c1ccc(F)cc1F , report its measured MIC90.
8

Given the entry CCC(C)n1ncn(-c2ccc(N3CCN(c4ccc(OCC5COC(Cn6cncn6)(c6ccc(Cl)cc6Cl)O5)cc4)CC3)cc2)c1=O (stereo not shown) , report its measured MIC90.
0.125

Given the entry CCCCCOc1ccc(-c2ccc(-c3ccc(C(=O)N[C@H]4C[C@@H](O)[C@@H](OCC[N+](C)(C)C)NC(=O)[C@@H]5[C@@H](O)[C@@H](C)CN5C(=O)[C@H]([C@@H](C)O)NC(=O)[C@H]([C@H](O)[C@@H](O)c5ccc(O)cc5)NC(=O)[C@@H]5C[C@@H](O)CN5C(=O)[C@H]([C@@H](C)O)NC4=O)cc3)cc2)cc1 [Compound 1] ({pTerphenylCO(4''-OnC5H11)}-[Orn(4R-OH,5R-OCH2CH2NMe3+)]T[Hyp][hTyr(3S-OH,4S-OH)]T[Pro(3S-OH,4S-Me)]; lactam 1-C) , report its measured MIC90.
0.25

====

Test system: Candida krusei
PROTOCOL DESCRIPTION: Broth microdilution of invasive fungal isolates (CLSI M27-A3/M38-A2)
Type: cell-based
EXPERIMENTAL CONDITIONS: 16 isolates
PROPERTY LABEL: Number of isolates inhibited at MIC 0.06 μg/mL
Format: numeric value only, no unit, no commentary.

Given the entry CC[C@H](C)C[C@H](C)CCCCCCCCC(=O)N[C@H]1C[C@@H](O)[C@@H](NCCN)NC(=O)[C@@H]2[C@@H](O)CCN2C(=O)[C@H]([C@H](O)CCN)NC(=O)[C@H]([C@H](O)[C@@H](O)c2ccc(O)cc2)NC(=O)[C@@H]2C[C@@H](O)CN2C(=O)[C@H]([C@@H](C)O)NC1=O , report its measured Number of isolates inhibited at MIC 0.06 μg/mL.
4
